assay info: Plasma pharmacokinetics in rats after i.v. and i.g. dosing (UPLC-FLR)
Format: in vivo, Sprague Dawley rats
run parameters: both sexes, Sprague Dawley, rat, plasma, iv, 8 mg/kg, 8 mg/kg i.v., mean ± SD, n = 6, read-out: t1/2β
experimental endpoint: half-life (h)
Field: numeric (h). Do not append units.

Reported half-life, compound CC[C@@]12CC(C(=O)OC)=C3Nc4cc5c(cc4[C@@]34CCN(C[C@H]3O[C@H]31)[C@@H]24)[C@@H]1C(O5)[C@@H](O)[C@@]2(CC)CC(C(=O)OC)=C3Nc4cc(OC)ccc4[C@@]34CCN1[C@@H]24 (stereo partly shown) [10-dehydroxyl-12-demethoxy-conophylline, 10-Dehydroxyl-12-demethoxy-conophylline] : ____ 1.11
